# Tested on: SK-OV-3 ovarian
# assay explanation: NCI tumour cell line growth inhibition, 48 h
measurement type: TGI

Record excerpt, results attached:
N#CC1CCc2c(c(-c3cn[nH]c3C(F)(F)F)nc3c(F)cc4[nH]ncc4c23)C1 (stereo unspecified) | 10.5 µM
CSc1ccccc1P(CCP(c1ccccc1SC)c1ccccc1SC)c1ccccc1SC | > 55.4 µM
Cc1cc(Cl)ccc1NC(=O)CCCC(=O)C(C(=O)c1ccccc1)c1ccccc1 (stereo unspecified) | > 100 µM
S=C(Nc1ccccc1)N1CCn2c1nsc2=Nc1ccccc1 | > 100 µM
CN(C)c1ccc(/C=C2\C[C@H]3[C@@H]4CCc5cc(O)ccc5[C@H]4CC[C@]3(C)C2=O)cc1 | > 100 µM

// each compound listed below needs its TGI
1. OC(O)(C(F)(F)F)C(F)(F)F
2. CCCCCCCCCCCCCCC(O)C1CCC(C(O)CCC(O)CCCCCC(O)CC2=CC(C)OC2=O)O1 (stereo unspecified)
3. Cc1cc(Cl)ccc1NC(=O)NC(C)(C)COC(=O)Nc1cccc(Cl)c1
4. COc1ccc(N2C(=O)/C(=C/c3ccc(N(CCC#N)CCC#N)cc3)N=C2c2ccccc2)c(OC)c1
5. Cc1c(N)nc(C(CC(N)=O)NCC(N)C(N)=O)nc1C(=O)NC(C(=O)NC(C)C(O)C(C)C(=O)NC(C(=O)NCCc1nc(-c2nc(C(=O)NCCCNCCCCN)cs2)cs1)C(C)O)C(OC1OC(CO)C(O)C(O)C1OC1OC(CO)C(O)C(OC(N)=O)C1O)c1cnc[nH]1 (stereo unspecified)
6. CC(C)N(Cc1ccccc1)S(=O)(=O)c1n[nH]c(C(C)(C)C)n1

Outgoing:
1. > 100 µM
2. 15 µM
3. 96 µM
4. > 100 µM
5. > 10 µM
6. > 100 µM

----------
# System: SF-539 CNS
# assay explanation: NCI tumour cell line growth inhibition, 48 h
Would you kindly list TGI for each of these compounds?

// each listed compound needs a value for TGI
1. Cn1c(=O)c2sc3cc4c(cc3c2c2ccccc21)sc1c(=O)n(C)c2ccccc2c14
2. C[C@@H](c1ccccc1)N(CC#N)C1CCC[C@H]1O (stereo partly specified)

Outgoing:
1: > 100 µM; 2: > 100 µM

----------
Record form. Attribute: TGI. Fill in for each entry.
# Tested on: OVCAR-5 ovarian
# assay explanation: NCI tumour cell line growth inhibition, 48 h

Cc1ccc(SCC(O)=C2C(=O)CCCC2=O)cc1 | > 100 µM
Cc1ccc(S(=O)(=O)c2ccsc2N)cc1 | > 100 µM
CN/N=C(\C(=O)Nc1ccc([N+](=O)[O-])cc1[N+](=O)[O-])C1NC(=O)NC1=O (configuration not stated) | > 100 µM
N#Cc1c(C#N)c(-c2ccccc2)n(/N=C\c2ccccc2)c1N | > 100 µM
CC(C)N(Cc1ccccc1)S(=O)(=O)c1n[nH]c(C(C)(C)C)n1 | > 100 µM

Working through the 8 compounds below one at a time, give TGI for each.
1. COC(=O)[C@@H]1O[C@]12[C@@H](CO[Si](C)(C)C(C)(C)C)O[C@@H](n1cc(C)c(=O)[nH]c1=O)[C@@H]2O[Si](C)(C)C(C)(C)C
2. CC(=O)O[C@H](C[C@H](C(C)C)N(C)C(=O)[C@@H](NC(=O)[C@H]1CCCCN1C)C(C)(C)C)c1nc(C(=O)N[C@@H](Cc2ccccc2)C[C@H](C)C(=O)O)cs1
3. O=C1C2=C(c3ccccc31)C(c1ccc(Cl)cc1)NC(=S)N2 (configuration not stated)
4. COc1ccc(NC(=S)NNC(=O)c2cc(-c3ccccc3)nc3ccccc23)cc1
5. C=C1CC(OC)(C(O)C(=O)N[C@H]2OCO[C@H]3C2O[C@H](C[C@H](O)COC)C(C)(C)C3OC)O[C@H](C)[C@@H]1C (some centres not stated)
6. COc1cc(/C=C/c2cc(/C=C/c3ccc(O)c(OC)c3)[nH]c(=O)n2)ccc1O
7. C/C(=C\CNc1nc(Cl)nc2nc[nH]c12)CO
8. CC1(C)CC2(C)OC(=N)C1(C#N)C2(C#N)C#N (configuration not stated)

Outgoing:
["36.6 µM", "> 25 µM", "> 100 µM", "58.8 µM", "> 0.00772 µM", "28.4 µM", "> 100 µM", "27.3 µM"]

// for each compound in input: emit TGI
1. O=S(=O)(O)c1ccc(Nc2ccnc3cc(Cl)ccc23)cc1
2. C#CCOc1cccc(Nc2ncc3ncn(C4CCN(C(=O)CCl)C4)c3n2)c1 (configuration not stated)
3. O=C(NCCCCNCCCNC(=O)OCc1ccccc1)OCc1ccccc1

Outgoing:
1. > 100 µM
2. > 62.5 µM
3. > 100 µM

# TGI (compound: CC1(C)Oc2ccc3c(=O)c4ccccc4oc3c2C1C(=O)O (configuration not stated) ) is > 100 µM

----------
# Test system: PC-3 prostate
# assay explanation: NCI tumour cell line growth inhibition, 48 h
For each record, write down the corresponding TGI.

Example results:
O=C1NC(O)CCN1C1CC(O)C(CO)O1 (stereo unspecified) | > 100 µM
O=c1c(-c2ccc(O)cc2)coc2cc(O)cc(O)c12 | > 100 µM
CSC1NNC2(C(=O)N1)c1ccccc1-c1ccccc12 (stereo unspecified) | > 10 µM
CCOC(=O)c1cc(-c2ccn(C(C)=O)c2)c(-c2cc(C)co2)[nH]1 | > 100 µM

Report TGI for each item below.
1. S=C(Nc1ccc2c(c1)Cc1ccccc1-2)Nc1ccc2c(c1)Cc1ccccc1-2
2. COC(=O)C1=C(C)NC2(C)OC(C)(O)C(C(C)=O)C12C(C)=O (stereo unspecified)
3. Cn1c(=O)c2sc3cc4c(cc3c2c2ccccc21)sc1c(=O)n(C)c2ccccc2c14
4. O=C(c1ccccc1)c1ccccc1C(=O)c1ccccc1

Outgoing:
1: > 100 µM; 2: > 100 µM; 3: > 100 µM; 4: > 100 µM

----------
# Tested on: MDA-MB-231 breast
# assay explanation: NCI tumour cell line growth inhibition, 48 h
measurement type: TGI

Illustrative cases are given below, each with its answer.
O=C(NCc1ccccc1)c1c(O)c2ccccc2[nH]c1=O | > 100 µM
S=C(Nc1ccc2c(c1)Cc1ccccc1-2)Nc1ccc2c(c1)Cc1ccccc1-2 | > 100 µM
CCOC(=O)c1cc(-c2ccn(C(C)=O)c2)c(-c2cc(C)co2)[nH]1 | > 100 µM
CCOC(=O)c1cn(C)nc1N/C(C)=C\C(=O)c1ccccc1 | > 100 µM
FC(F)(F)c1cc(NC2=NCCN=C(Nc3cc(C(F)(F)F)cc(C(F)(F)F)c3)SS2)cc(C(F)(F)F)c1 | 15 µM

Batch lookup, TGI per entry.
1. C(#Cc1ccccc1C#Cc1ccccn1)c1ccccn1
2. C=C1C(=O)O[C@H]2[C@H]1CC/C(COC(=O)/C=C/c1c[nH]c3ccccc13)=C\CC[C@@]1(C)O[C@@H]21
3. Cc1ccc(S(=O)(=O)c2ccsc2N)cc1
4. CCC1CCC2c3c([nH]c4ccccc34)C3C(=O)N(c4ccc(OC)cc4)C(=O)C3C2C1 (centres undefined)
5. O=S1(=O)CC(Br)C(Br)C1 (centres undefined)

Outgoing:
1: 36.6 µM; 2: 0.374 µM; 3: > 100 µM; 4: > 100 µM; 5: 10.3 µM

For every record below, what is its TGI?
1. COC(=O)/C=C\C(C#N)(C#N)N=Cc1ccsc1
2. CN(C)C=Nc1nncc2n[nH]nc12
3. C[C@@H]1OCC(O)C([C@H]2OC(c3ccccc3)=N[C@H]2CO)O1 (some centres undefined)
4. CS(=O)(=O)Nc1cc(-c2ccc3ncnc(Nc4cccc(Cl)c4F)c3c2)cnc1Cl

Outgoing:
12.2 µM
> 100 µM
> 100 µM
8.06 µM

Go through the list and state TGI for each entry.
1. O=C(NC/C=C/Br)NC1CCNc2ccccc21 (centres undefined)
2. O=c1/c(=C/c2ccc(-c3ccc(Cl)cc3Cl)o2)sc2n1[C@@H](c1ccc3c(c1)OCO3)C=C(c1cc(F)c(Cl)cc1Cl)N=2
3. O=c1oc2cc(OS(=O)(=O)c3ccccc3)ccc2c2c1CCCCC2
4. COc1cccc(C2CC(=O)c3cccn32)c1 (centres undefined)
5. C/C(=C\c1ccccc1)C(=O)NCc1ccc(C(=O)NCCc2c[nH]c3ccccc23)cc1

Outgoing:
> 100 µM
57.2 µM
> 100 µM
> 100 µM
> 100 µM

----------
# Tested on: SK-OV-3 ovarian
# assay explanation: NCI tumour cell line growth inhibition, 48 h
measurement type: GI50

C=C1C(=O)O[C@H]2[C@H]1CC/C(COC(=O)/C=C/c1c[nH]c3ccccc13)=C\CC[C@@]1(C)O[C@@H]21 | 1.88 µM
N#Cc1c(NCc2ccccc2)nc(NCc2ccccc2)c(C#N)c1-c1cccc(O)c1 | 7.79 µM

Batch request: GI50 for each of the following compounds.
1. C(#Cc1ccccc1C#Cc1ccccn1)c1ccccn1
2. O=C(c1ccccc1)c1ccccc1C(=O)c1ccccc1
3. O=C(O)c1cc2c(c3ccsc13)-c1ccccc1CC2
4. CS(=O)(=O)Nc1cc(-c2ccc3ncnc(Nc4cccc(Cl)c4F)c3c2)cnc1Cl
5. Cc1ccc2cnc(N)c(C#Cc3cncc(C(=O)Nc4ccc(CN5CCN(C)CC5)c(C(F)(F)F)c4)c3)c2c1
6. CN(C)CCNc1c2c(c(NCCN(C)C)c3c(CO)c[nH]c13)C(=O)c1ccccc1C2=O
7. CCC1(CC)C(=O)[N-]C(=O)[N-]C1=O.[Au+].[Au+].c1ccc([PH+](c2ccccc2)c2ccccc2)cc1.c1ccc([PH+](c2ccccc2)c2ccccc2)cc1

Outgoing:
16.5 µM
50.3 µM
85.1 µM
1.99 µM
0.869 µM
4.64 µM
1.73 µM

For every item below, please supply its GI50.
1. O=C(O)c1ccc2cccnc2c1O
2. Cc1cc(Cl)ccc1NC(=O)NC(C)(C)COC(=O)Nc1cccc(Cl)c1

Outgoing:
1: 1.7 µM; 2: 22.5 µM
